Molecular target: purified HLA-DR DRB1*0301 (human)
Test: competition with 125I-labelled reference peptide, purified HLA
measurementName: pIC50
Expect pIC50 as a plain number equal to -log10 of the molar concentration.

Exercise: Give the measured pIC50 of RVVVSIDRFLRVRDQ (modifications not checked) [Flu.PB2.496] .
Key: 7.17

Exercise: // query: VSKMGVDEYSSTERV (modifications not checked) [Flu.PB2.483]
Key: 5.99

Exercise: // query: AMVFSQEDCMIKAVR (modifications not checked) [Flu.PB2.404]
Key: 6.14

Exercise: // query: FLILGKEDRRYGPAL (modifications not checked) [Flu.PB2.697]
Key: 6.25

Exercise: // query: LIQLIVSGRDEQSIA (modifications not checked) [Flu.PB2.384]
Key: 7.28
